Cited source for all entries: the supplement of paper PMC11908140

B1: library; numbered along this chain (parent)
chain: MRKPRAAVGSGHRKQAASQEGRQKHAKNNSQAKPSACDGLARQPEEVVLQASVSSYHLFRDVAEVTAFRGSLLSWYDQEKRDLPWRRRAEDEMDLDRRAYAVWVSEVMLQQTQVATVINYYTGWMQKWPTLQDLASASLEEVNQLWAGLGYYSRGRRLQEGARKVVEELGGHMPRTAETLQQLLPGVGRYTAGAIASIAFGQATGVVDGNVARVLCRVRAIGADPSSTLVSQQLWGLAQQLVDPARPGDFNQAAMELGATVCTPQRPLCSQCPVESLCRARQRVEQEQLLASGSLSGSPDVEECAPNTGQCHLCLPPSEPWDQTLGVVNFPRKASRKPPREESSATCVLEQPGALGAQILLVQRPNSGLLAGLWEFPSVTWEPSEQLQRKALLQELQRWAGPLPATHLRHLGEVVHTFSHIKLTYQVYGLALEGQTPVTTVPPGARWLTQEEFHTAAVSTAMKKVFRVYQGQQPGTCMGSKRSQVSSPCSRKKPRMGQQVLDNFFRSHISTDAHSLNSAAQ

- Variants of: B1
- Assay method text: 8OG:A repair function score (normalized; synonymous = 0, nonsense = -1) (normalized log-likelihood score); higher = more repair activity (WT-like);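 further: cells sorted at 72 h after reporter transfection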
- Conditions used: with 8OG:A DNA repair reporter (GFP) in HEK-293 MUTYH KO cells
Values of 8OG:A repair function score greater than or equal to -0.06 map to rule met; values below map to rule not met.

Prompt: Is the recorded value of 8OG:A repair function score equal to or greater than -0.06 for this variant? L149H
Completion: rule not met

Prompt: One more variant: G150Y
Completion: rule not met

Prompt: One more variant: V468F
Completion: rule met

Prompt: One more variant: V485T
Completion: rule met

Prompt: One more variant: L313T
Completion: rule not met

Prompt: One more variant: L215I
Completion: rule not met

Prompt: One more variant: Q282C
Completion: rule met

Prompt: One more variant: H420Y
Completion: rule not met

Prompt: One more variant: T417M
Completion: rule met

Prompt: One more variant: E275R
Completion: rule met

Prompt: One more variant: A431R
Completion: rule met

Prompt: One more variant: R163C
Completion: rule met

Prompt: One more variant: S344T
Completion: rule met

Prompt: One more variant: L169V
Completion: rule not met

Prompt: One more variant: R491N
Completion: rule met

Prompt: One more variant: S459L
Completion: rule not met

Prompt: One more variant: L215M
Completion: rule not met

Prompt: One more variant: Q78I
Completion: rule met

Prompt: One more variant: P488Y
Completion: rule not met

Prompt: One more variant: D96C
Completion: rule not met

Prompt: One more variant: T436V
Completion: rule not met
